Experiment: in vitro
Settings: human, hela cells, % viability
measurement_name: viability at 28.5 h, 10 µM (%)

| molecule | measure_unit | obs_value |
| --- | --- | --- |
| Cc1nc(-c2ccc(CNC(=O)C(Cc3ccccc3)N3CCCC3)cc2)ccc1C(N)=O (stereo not drawn) | % | 92.6 |
| CC(C)Nc1nc2ccccc2nc1Sc1cccc(C(=O)O)c1 [CBK115955T] | % | 104 |
| O=C(CCC(=O)c1ccccc1)Nc1cc2ccccc2c(N2CCNCC2)n1 [CBK028418T] | % | 106 |
| COc1ccccc1N1CCN(CC(=O)Nc2cc(Cl)ccc2C)CC1 | % | 105 |
| O=C(CCCc1c[nH]c2ccccc12)N1CCn2c(nnc2C2CC2)C1 | % | 96.6 |
| O=C(O)Cc1nn(Cc2ccccc2)c(=O)c2ccccc12 | % | 115 |
| CCC1CCCCN1C(=O)c1cc(C)ccc1F (stereo not drawn) | % | 108 |
| CC1CCCN(c2ccc(NS(=O)(=O)c3ccc4[nH]c(=O)[nH]c(=O)c4c3)cc2)C1 (stereo not drawn) | % | 97.5 |
| OC[C@H]1O[C@@H](n2cnc3cncnc32)C[C@H]1O | % | 113 |

* * *

Assay: in vitro
Set-up: Viability of infected HeLa host cells, resazurin conversion, bulk resorufin fluorescence relative to DMSO
Details: human, hela cells; bulk resorufin, mean of 3
measurement_name: viability at 28.5 h, 0.0123333 µM (%)

| compound | measure_unit | obs_value |
| --- | --- | --- |
| O=C(Nc1ccc(OC(F)(F)F)cc1)Nc1cc(-c2cccs2)n[nH]1 [c26e] | % | 100 |
| COCC(=O)N[C@H]1C[C@H]2C(=O)Nc3ccc(/C=C/c4ccccc4)cc3C(=O)N2C1 [c25e] | % | 105 |
| CCOc1ccc2nc(NC(=N)N)nc(C)c2c1 [c37e] | % | 89 |
| Cc1noc(-c2ccc3c(c2O)OCCO3)c1-c1ccc(Cl)cc1 [c20e] | % | 91.8 |
| O=C(c1ccc(-c2ccc(F)cc2)o1)N1C[C@H]2CC[C@](O)(c3ccc(F)cc3)[C@H]2C1 [c2e] | % | 89 |
| O=C1C(NCCO)=C(Nc2cccc(Cl)c2)C(=O)c2ccccc21 [c45e] | % | 91.6 |
| COc1ccc(C2CC(=O)C=C(Nc3cc(Cl)ccc3O)C2)cc1 (stereo not drawn) [c24e] | % | 84.9 |
| Oc1ccccc1Nc1nc(NC2CCCC2)c2ccccc2n1 [c49e] | % | 90 |
| COCCNc1nc2c(c(N3CCCCCC3)n1)CCNCC2 [c18e] | % | 108 |
| O=C(NCCCn1ccnc1)c1cc(-c2cccc(Br)c2)nc2ccccc12 [c50e] | % | 87.8 |
| COc1ccc(CC(=O)N2CCCC(c3nc(C)c4c(n3)N(CC3CC3)CCC4)C2)cc1 (stereo not drawn) [c52e] | % | 92.2 |
| COc1ccc2cc3c(nc2c1)OC(=O)N(CC1CC1)C3 [c32e] | % | 92 |
| CCC1C(c2ccc(C)cc2)=CCC(C(=O)NCCCN(C)C)C1C (stereo not drawn) [c30e] | % | 87.1 |
| Fc1cc(Br)c(CNCc2ncc[nH]2)c(N2CCCCC2)c1F [c31e] | % | 96.4 |
| OCCNc1nc(Nc2ccc(Br)cc2)nc2ccccc12 [c17e] | % | 86.4 |
| COc1ccc([C@@H]2CN(C)C[C@H]2NC(=O)Nc2ccc(Cl)c(Cl)c2)cc1OC [c39e] | % | 90.6 |
| Fc1cccc(F)c1OCCOc1nc(N2CCNCC2)ccc1C(F)(F)F [c21e] | % | 87.6 |
| C1=C(CCNCCc2ccccc2)c2ccccc2C12CCCC2 [c51e] | % | 98.1 |
